Biological target: Rat RGMa-His (rat) (UniProt D4A188)
Experiment: BIAcore; Ab captured on CM5 chip via anti-hIgG Fc Ab, antigen injected; 1:1 Langmuir fit
In this section, each of the binders is paired with its reported kon.
Use M⁻¹ s⁻¹ as the unit, but write only the number.

>  <binder>
h5F9.AM4 (antibody, V domains shown, also called RGMA-h5F9AM.4; RGMA-h5F9Vh7a/pJP29 1 hIgG1/K mut) VH: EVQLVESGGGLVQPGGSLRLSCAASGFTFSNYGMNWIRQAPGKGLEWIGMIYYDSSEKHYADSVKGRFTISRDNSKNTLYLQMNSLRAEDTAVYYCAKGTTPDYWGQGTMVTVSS VL: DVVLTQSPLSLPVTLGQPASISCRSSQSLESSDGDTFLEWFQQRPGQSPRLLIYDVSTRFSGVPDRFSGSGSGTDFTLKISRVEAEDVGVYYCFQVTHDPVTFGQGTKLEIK

>  <quantity kind>
kon

>  <value units>
M⁻¹ s⁻¹

>  <value measured>
1.1e+06

$$$$

[ask] Could you share which kon value was measured for humanized antibody 5F9.23 (antibody, V domains shown, Humanized parental antibody; also called h5F9.23; H5F9.23*) VH: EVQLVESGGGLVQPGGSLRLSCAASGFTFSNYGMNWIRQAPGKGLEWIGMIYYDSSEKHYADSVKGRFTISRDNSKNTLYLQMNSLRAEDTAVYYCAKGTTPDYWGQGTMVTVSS VL: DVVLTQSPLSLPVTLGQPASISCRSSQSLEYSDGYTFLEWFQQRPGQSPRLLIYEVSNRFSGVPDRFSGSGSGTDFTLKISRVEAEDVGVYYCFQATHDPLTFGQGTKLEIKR ?
[reply] 830000

[ask] Could you share which kon value was measured for h5F9.AM8 (antibody, V domains shown, also called RGMA-h5F9AM.8; RGMA-h5F9pJP297/pJP 298 hIgG1/K mut) VH: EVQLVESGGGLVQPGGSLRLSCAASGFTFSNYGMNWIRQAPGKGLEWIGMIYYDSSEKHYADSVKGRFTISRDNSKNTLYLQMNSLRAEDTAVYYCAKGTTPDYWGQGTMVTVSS VL: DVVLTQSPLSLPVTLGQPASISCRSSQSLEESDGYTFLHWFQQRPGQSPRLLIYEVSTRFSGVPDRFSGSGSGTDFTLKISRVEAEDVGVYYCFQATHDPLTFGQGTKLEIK ?
[reply] 660000

[ask] Could you share which kon value was measured for h5F9.AM11 (antibody, V domains shown, also called RGMA-h5F9AM; 11; RGMA-h5F9pJP302/pJP 303 hIgG1/K mut) VH: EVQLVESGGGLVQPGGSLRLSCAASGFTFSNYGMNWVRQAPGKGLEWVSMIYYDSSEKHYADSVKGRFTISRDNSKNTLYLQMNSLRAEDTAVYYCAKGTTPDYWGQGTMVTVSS VL: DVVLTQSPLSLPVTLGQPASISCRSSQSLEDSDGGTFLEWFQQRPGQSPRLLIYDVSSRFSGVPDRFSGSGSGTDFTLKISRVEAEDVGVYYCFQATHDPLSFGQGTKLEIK ?
[reply] 700000

[ask] Could you share which kon value was measured for h5F9.AM9 (antibody, V domains shown, also called RGMA-h5F9AM.9; RGMA-h5F9pJP297/pJP 299 hIgG1/K mut) VH: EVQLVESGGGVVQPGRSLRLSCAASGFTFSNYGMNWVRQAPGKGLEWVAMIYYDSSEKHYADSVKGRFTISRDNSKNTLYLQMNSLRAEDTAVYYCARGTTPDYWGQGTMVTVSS VL: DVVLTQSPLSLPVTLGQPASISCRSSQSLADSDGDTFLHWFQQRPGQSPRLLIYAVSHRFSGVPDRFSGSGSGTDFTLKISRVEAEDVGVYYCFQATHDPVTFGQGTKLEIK ?
[reply] 680000
